- System: KM12 colon
- Method Notes: NCI-60 one-dose screen, 48 h (100 = growth as untreated, 0 = no growth, -100 = all killed)
- Assay Context: 10 µM
The panel holds about 83,000 compounds, 20% with a hit somewhere; the sample as a whole holds those more often.
Measurement Label: growth (%)
Please give a number only; it is taken to be in %.

Some solved cases for reference:
{"columns": ["Compound", "growth, %"],
 "data": [
  ["CC1(C)CC[C@]2(C(=O)Nc3ccccc3)CC[C@]3(C)C(=CC[C@@H]4[C@@]5(C)CC[C@H](N)C(C)(C)[C@@H]5CC[C@]43C)[C@H]2C1", 36.1],
  ["CC(C)c1ccc(C(=O)Nc2sc3c(c2C(N)=O)CCC(=O)C3=O)cc1", 98.6],
  ["COc1cc2c3c(n(CCCN4CCOCC4)c(=O)c2cc1OC)-c1nc2c(cc1C3=O)OCO2", 32.1],
  ["O=C(Nc1cccc(C(F)(F)F)c1)c1cncc(C#Cc2cnc3cccnn23)c1", 7.46]
]}

Query COc1cnc2c(c1)C(=O)c1c-2n(CCCNCCO)c(=O)c2cc(OC)c(OC)cc12 on KM12 colon; growth returned: 54.5

Log: KM12 colon, compound N#Cc1ccc(-c2nn(-c3ccc(C(=O)O)cc3)cc2CNc2cc(Cl)cc(Cl)c2)cc1 , growth = 18.6

The reported KM12 colon growth of Cc1ccc(-c2nc3ccc(C(=O)N=Nc4c(O)[nH]c5ccc(Br)cc45)cc3[nH]2)cc1 is 32.6

----------
- System: SF-268 CNS
- Method Notes: NCI-60 one-dose screen, 48 h
- Assay Context: 10 µM
The panel holds about 83,000 compounds, 20% with a hit somewhere; the sample as a whole holds those more often. Activity calls are given as the source filed them. Rule for the calls: active = growth percent below 10; inactive = the rest.
Outcome field: choose from y for active, n for inactive

*Q* Given O=C1Nc2cc(Cl)ccc2/C1=C/c1ccc(OCc2ccc(Br)cc2F)cc1 , state the outcome it received in this test.
*A* y

*Q* Which result was noted for this molecule in the test: OCc1[nH]nc2cc(Nc3ncc4ccc(Br)c(OC5CCC(O)CC5)c4n3)ccc12 (configuration not stated)
*A* y

*Q* Dear colleague, could you share the recorded outcome for C=C(c1ccc(OC)c(N)c1)c1cc(C)nc2ccccc12 when you have a moment?
*A* n

*Q* Please state the recorded outcome for this molecule: Cc1cc(C)cc(Oc2cccc(-c3c(C)nnn3C3CCN(CCN(C)C)CC3)n2)c1
*A* n

*Q* Write down the call the test reported for this molecule. Item: O=C(Nc1nc2ccc([N+](=O)[O-])cc2s1)Nc1ccccc1I
*A* n

----------
Each item that follows carries a reported growth.
- Test system: CAKI-1 renal
- Method Notes: NCI-60 one-dose screen, 48 h (100 = growth as untreated, 0 = no growth, -100 = all killed)
- Assay Context: 10 µM
Compounds without any hit were thinned out: in the full panel of roughly 83,000, 20% have a hit.
Only the number, expressed in %, is required.

Please review the following examples before continuing.
{"columns": ["Compound", "Measurement Label", "Measure Unit", "Numeric Result"],
 "data": [
  ["O=c1cc(-c2ccccc2)oc2cc(OCCCNCc3ccccc3)cc(O)c12", "growth", "%", -24],
  ["O=C(Cc1ccc2c(c1)CN(C1CCC(=O)NC1=O)C2=O)NCc1cccc2ccccc12 (centres undefined)", "growth", "%", 7.68],
  ["O=C(NCCCCC(c1ccc(F)cc1)c1ccc(F)cc1)NCCCc1cccnc1", "growth", "%", 29.8],
  ["O=C(c1ccccc1)n1ccc(-c2cc3cc(Br)ccc3oc2=O)n1", "growth", "%", 15.2],
  ["CN1C(=O)N(C)C2SC(N/N=C/c3cccs3)=NC21 (centres undefined)", "growth", "%", 20.8]
]}

Bench note, CAKI-1 renal: O=C(CNc1nc(-c2ccccc2)cs1)Nc1ccc([N+](=O)[O-])cc1 , growth reads 7.15

CCOC(=O)CNC(=O)CN(Cc1ccccc1)C(=O)[C@@]1(C)CCC[C@]2(C)[C@H]3C[C@H]4C(C(C)C)=C[C@]3(CC[C@H]21)[C@@H]1C(=O)OC(=O)[C@@H]14 tested on CAKI-1 renal gave growth: 88.3

Record O=C1c2ccccc2C(=O)c2c1c(C(=O)c1ccc(Cl)cc1)n1c2ccc2c3ccccc3ccc21 has CAKI-1 renal growth equal to 92.5

# Clc1ccc2c(N/N=C/c3c[nH]c4ccc(Br)cc34)ccnc2c1 with CAKI-1 renal: growth is -94

Reference for the values: PubChem BioAssay (NCI)
